measurement notes: protein stability index of a GFP-peptide fusion (yeast GPS) (PSI 1-4); higher = more stable; sorted into four equal gates, so the index is relative within each strain
cond: pdr5∆
Label 1 when protein stability index >= 3; otherwise 0.

(Q) Would you say QGVYGAVYETLISRMIF [BRR2] shows protein stability index at minimum 3?
(A) 0

(Q) Would you say RSNFRVNLSQEALQYDP [SNU114] shows protein stability index at minimum 3?
(A) 0

(Q) Would you say AESEWNGVNVQTLKGVG [RPC37] shows protein stability index at minimum 3?
(A) 0

(Q) Would you say LGLEYIIRLLPINLENN [SRB8] shows protein stability index at minimum 3?
(A) 0

(Q) Would you say MAGKVLILTSHNMKAYY [BRR2] shows protein stability index at minimum 3?
(A) 0

(Q) Would you say DDPLENMFGDYSNEPFN [SNF6] shows protein stability index at minimum 3?
(A) 0

(Q) Would you say DLFTHLWNQWLKLNTSL [SRP68] shows protein stability index at minimum 3?
(A) 0

(Q) Would you say VTSKVRNAEFKVSKNST [YMR153W/NUP53] shows protein stability index at minimum 3?
(A) 1

(Q) Would you say PSFGKRHNKSHTLCNRC [RPL37A] shows protein stability index at minimum 3?
(A) 0

(Q) Would you say YKKSTENESTNYQYKIQ [MED7] shows protein stability index at minimum 3?
(A) 0

(Q) Would you say KGGSLYGLGLIYAGFGR [RPN2] shows protein stability index at minimum 3?
(A) 0

(Q) Would you say KKKRSRTSATREDTPLS [ISW2] shows protein stability index at minimum 3?
(A) 1

(Q) Would you say NRSNDALIKFMEYHISN [FAS2] shows protein stability index at minimum 3?
(A) 0

(Q) Would you say RRRRLKKVEEEENAATL [RPB4] shows protein stability index at minimum 3?
(A) 1

(Q) Would you say KGDGMTSAVASIGSIYQ [RPN1] shows protein stability index at minimum 3?
(A) 1

(Q) Would you say TPDPSELAAKEEPAKEE [FAS2] shows protein stability index at minimum 3?
(A) 0

(Q) Would you say LRNVFLGKCSRITDASL [GRR1] shows protein stability index at minimum 3?
(A) 0

(Q) Would you say EPIDQNTGIVSSTTGMS [RPT3] shows protein stability index at minimum 3?
(A) 0

(Q) Would you say FYRGNYTDFENTFQKTV [FAS1] shows protein stability index at minimum 3?
(A) 0

(Q) Would you say ILEEKTDLHLPKKEYDD [NSL1] shows protein stability index at minimum 3?
(A) 0

(Q) Would you say VTMGAKDKLREFIPHST [RPN6] shows protein stability index at minimum 3?
(A) 1

(Q) Would you say ASDGGLYVPHSENRFPG [RPL5] shows protein stability index at minimum 3?
(A) 0

(Q) Would you say REQYETQVALNESEKDQ [UBP6] shows protein stability index at minimum 3?
(A) 0

(Q) Would you say ASYSKYLIDHIKVDGAV [RPL22B] shows protein stability index at minimum 3?
(A) 0

(Q) Would you say RRGYQVYREVCAACHSL [CYT1] shows protein stability index at minimum 3?
(A) 0

(Q) Would you say FKRVSQTFEAKLHFKDT [NUT1] shows protein stability index at minimum 3?
(A) 1

(Q) Would you say PQQQQQHLQFNGSSDAS [YDL088C/ASM4] shows protein stability index at minimum 3?
(A) 0

(Q) Would you say NGCSGADVKGVCTEAGM [RPT6] shows protein stability index at minimum 3?
(A) 1

(Q) Would you say HELITNIGETAGVVQDI [RPB9] shows protein stability index at minimum 3?
(A) 0

(Q) Would you say NAELLDYLFHLLISLNI [YLR018C/POM34] shows protein stability index at minimum 3?
(A) 0

(Q) Would you say GMGGGMPDMNEMMKMMQ [SRP54] shows protein stability index at minimum 3?
(A) 1

(Q) Would you say VAEGKSKQDASPKPYAV [RPL8A] shows protein stability index at minimum 3?
(A) 1

(Q) Would you say RRILAAAAAAAAAVSGN [SSN3] shows protein stability index at minimum 3?
(A) 0

(Q) Would you say GTGLQSYLEERERQVNE [RPC53] shows protein stability index at minimum 3?
(A) 1

(Q) Would you say PEGTLSGGSRNTSESLL [SMC2] shows protein stability index at minimum 3?
(A) 1

(Q) Would you say AGKWSSKYLIKQIDIPN [ECM29] shows protein stability index at minimum 3?
(A) 0

(Q) Would you say SADYEILYEIRALYTPF [YDL116W/NUP84] shows protein stability index at minimum 3?
(A) 0

(Q) Would you say TKKPLMVKNVKPSSPPD [SIR4] shows protein stability index at minimum 3?
(A) 0

(Q) Would you say KSNRSYSIALSNVAAIF [GAL11] shows protein stability index at minimum 3?
(A) 0

(Q) Would you say ARVILYLKNVLFAFNGV [SIN4] shows protein stability index at minimum 3?
(A) 0

(Q) Would you say VAGGVAGGEAGEAEAEK [RPP1A] shows protein stability index at minimum 3?
(A) 1

(Q) Would you say FDDLLKPVYKGKKLTDE [RET1] shows protein stability index at minimum 3?
(A) 0

(Q) Would you say KQRTKKEDKSEAIDGNG [SNF2] shows protein stability index at minimum 3?
(A) 1

(Q) Would you say WEISNPDFLSKYSAITS [NUT1] shows protein stability index at minimum 3?
(A) 0

(Q) Would you say GVTSLGIKATNGVVIAT [PRE8] shows protein stability index at minimum 3?
(A) 0

(Q) Would you say AQFLRSVVHPGEMVGVL [RPO21] shows protein stability index at minimum 3?
(A) 0

(Q) Would you say TETKRLVVIRFGRKNDR [DIB1] shows protein stability index at minimum 3?
(A) 0

(Q) Would you say PVSLLNSQLVGKPHFSL [PCI8] shows protein stability index at minimum 3?
(A) 0

(Q) Would you say VFQLPTRLPAFERPAVK [RPC53] shows protein stability index at minimum 3?
(A) 0
